target: Substance-P receptor (Cavia porcellus); experiment: In vitro binding affinity against substance P receptor using [3H]SP as radioligand in guinea pig lung membrane; format: cell membranes
Sequence (P30547 whole entry): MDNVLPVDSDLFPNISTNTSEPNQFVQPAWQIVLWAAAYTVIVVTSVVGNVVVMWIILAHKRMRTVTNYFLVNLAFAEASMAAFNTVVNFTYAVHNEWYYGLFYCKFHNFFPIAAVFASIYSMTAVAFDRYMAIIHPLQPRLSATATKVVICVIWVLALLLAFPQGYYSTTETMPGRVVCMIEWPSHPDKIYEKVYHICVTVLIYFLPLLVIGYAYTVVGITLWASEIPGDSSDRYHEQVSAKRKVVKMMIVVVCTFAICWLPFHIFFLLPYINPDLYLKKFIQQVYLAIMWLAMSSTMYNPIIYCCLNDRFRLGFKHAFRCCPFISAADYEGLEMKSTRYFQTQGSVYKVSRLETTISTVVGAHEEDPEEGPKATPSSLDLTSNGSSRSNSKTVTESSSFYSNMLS
endpoint: IC50 (nM)

Examples with their reported IC50 follow.
>  <compound>
CN(Cc1ccccc1)C(=O)[C@@H](Cc1ccc(F)cc1)NC(=O)C1C[C@@H](O)CN1C(=O)c1cn(C)c2ccccc12 (stereo not given in full)

>  <endpoint>
IC50

>  <quantitative readout>
4.3

$$$$
>  <compound>
CN(Cc1ccccc1)C(=O)[C@@H](Cc1cccc(C(F)(F)F)c1)NC(=O)C1C[C@@H](O)CN1C(=O)c1cn(C)c2ccccc12 (stereo not given in full)

>  <endpoint>
IC50

>  <quantitative readout>
3.5

$$$$

[a] CN(Cc1ccccc1)C(=O)[C@@H](Cc1ccc(C(F)(F)F)cc1)NC(=O)C1C[C@@H](O)CN1C(=O)c1cn(C)c2ccccc12 (stereo not given in full)
[b] CN(Cc1ccccc1)C(=O)[C@@H](Cc1ccc(O)cc1)NC(=O)C1C[C@@H](O)CN1C(=O)c1cn(C)c2ccccc12 (stereo not given in full)
Q: Lower value for measured IC50? Options: a , b Label of pick, please.
Result: b
(b: 1.8 nM, a: 4.9 nM)
